systemTested: G12V-mutant human KRAS (amino acid residues 1-188) (Homo sapiens, UniProt P01116, G12V)
Construct: G12V-mutant human KRAS (amino acid residues 1-188) with FLAG tag was purified from E. coli; made in house; host or cells: E. coli
assayMethodText: KRAS Binding Competition Assay (AlphaScreen; biotinylated KRpep-2d analogue), G12V
conditionParameters: geometric mean, read-out: KRAS GMean IC50 (uM) MUTATION: G12V
assayEndpoint: IC50

# molecule, systemTested, IC50
measured = [
    ("Cc1cccc2cccc(-c3ccc4c(N5C[C@H]6CC[C@@H](C5)N6C(=O)CC#N)nc(OCC56CCCN5CCC6)nc4c3F)c12 [P-0442]", "G12V-mutant human KRAS (amino acid residues 1-188) (Homo sapiens, UniProt P01116, G12V)", "0.0001 to 10 µM"),
]

For the molecule Cc1cccc2cc(O)cc(-c3ccc4c(N5C[C@H]6CC[C@@H](C5)N6)nc(OC[C@@H]5CCCN5C)nc4c3F)c12 [P-0073] , give its reported IC50.
0.0001 to 10 µM

For the molecule CN1CCC[C@H]1COc1nc(N2C[C@H]3CC[C@@H](C2)N3)c2cc(C#N)c(-c3cc(O)cc4ccccc34)c(F)c2n1 [P-0021] , give its reported IC50.
0.0001 to 10 µM

For the molecule CN1CCC[C@H]1COc1nc(N2C[C@H]3CC[C@@H](C2)N3C(=O)Cc2cnccn2)c2ccc(-c3cc(O)cc4ccccc34)cc2n1 [P-0121] , give its reported IC50.
10 to 100 µM

For the molecule Oc1cc(-c2ccc3c(N4C[C@H]5CC[C@@H](C4)N5)nc(CCN4CCCC4)nc3c2F)c2ccccc2c1 [P-0439] , give its reported IC50.
10 to 100 µM

For the molecule CN1CCC[C@H]1COc1nc(N2C[C@H]3CC[C@@H](C2)N3C(=O)CCn2ccnc2)c2ccc(-c3cc(O)cc4ccccc34)cc2n1 [P-0382] , give its reported IC50.
0.0001 to 10 µM

For the molecule CN1CCC[C@H]1COc1nc(N2CC3CC2CN3)c2cc(Cl)c(-c3cc(O)cc4ccccc34)c(F)c2n1 (stereo partly shown) [P-0038] , give its reported IC50.
10 to 100 µM

---

systemTested: G12D-mutant human KRAS (amino acid residues 1-188) (Homo sapiens, UniProt P01116, G12D)
Construct: G12D or G12C-mutant human KRAS (amino acid residues 1-188) with FLAG tag; made in house; host or cells: E. coli
assayMethodText: KRAS Binding Disruption Assay (AlphaScreen; biotinylated KRpep-2d analogue or RAF1-RBD), G12D
conditionParameters: KRAS G12D; geometric mean; read-out: KRAS GMean IC50 (uM) MUTATION: G12D
# Lookup of reported IC50 keyed by entry

Previously resolved entries follow.
# compound, systemTested, IC50
data = [
    ("CN(C)C(=O)CCNc1nc(N2C[C@H]3CC[C@@H](C2)N3)c2ccc(-c3cc(O)cc4ccccc34)cc2n1", "G12D-mutant human KRAS (amino acid residues 1-188) (Homo sapiens, UniProt P01116, G12D)", "10 to 100 µM"),
    ("Oc1cc(-c2ccc3c(N4C[C@H]5CC[C@@H](C4)N5)nc(OCC4CCCCO4)nc3c2F)c2ccccc2c1 (stereo partly shown)", "G12D-mutant human KRAS (amino acid residues 1-188) (Homo sapiens, UniProt P01116, G12D)", "0.0001 to 10 µM"),
    ("OCC1(COc2nc(N3C[C@H]4CC[C@@H](C3)N4)c3ccc(-c4cc(O)cc5ccccc45)c(F)c3n2)CCC1", "G12D-mutant human KRAS (amino acid residues 1-188) (Homo sapiens, UniProt P01116, G12D)", "0.0001 to 10 µM"),
]

Please turn your attention to the following entry.
Name the recorded IC50 of `NC1CN(c2nc(N3C[C@H]4CC[C@@H](C3)N4)c3ccc(-c4cc(O)cc5ccccc45)c(F)c3n2)C1` , assay system G12D-mutant human KRAS (amino acid residues 1-188) (Homo sapiens, UniProt P01116, G12D).
0.0001 to 10 µM
